Listed below: activity coefficient values for each entry.
Assay: activity coefficient (dimensionless); of the first substance listed, at infinite dilution; xn = mol fraction of the nth substance listed
Conditions: 318.15 K; Liquid; Chromatography; x1 = 0
REPORTED ENDPOINT: activity coefficient

MOLECULE | OBSERVED RESULT
c1ccccc1 [benzene] + CCCCCCCCCCCCCC[P+](CCCCCC)(CCCCCC)CCCCCC.O=S(=O)([N-]S(=O)(=O)C(F)(F)F)C(F)(F)F | 0.42
C=CCCCCCC [oct-1-ene] + CCCCCCCCCCCCCC[P+](CCCCCC)(CCCCCC)CCCCCC.O=S(=O)([N-]S(=O)(=O)C(F)(F)F)C(F)(F)F | 1.21
C1CCCCCC1 [cycloheptane] + CCCCCCCCCCCCCC[P+](CCCCCC)(CCCCCC)CCCCCC.O=S(=O)([N-]S(=O)(=O)C(F)(F)F)C(F)(F)F | 0.94
C=CCCCCC [1-heptene] + CCCCCCCCCCCCCC[P+](CCCCCC)(CCCCCC)CCCCCC.O=S(=O)([N-]S(=O)(=O)C(F)(F)F)C(F)(F)F | 1.09
CCO [ethanol] + CCCCCCCCCCCCCC[P+](CCCCCC)(CCCCCC)CCCCCC.O=S(=O)([N-]S(=O)(=O)C(F)(F)F)C(F)(F)F | 1.3
CO [methanol] + CCCCCCCCCCCCCC[P+](CCCCCC)(CCCCCC)CCCCCC.O=S(=O)([N-]S(=O)(=O)C(F)(F)F)C(F)(F)F | 1.23
C#CCCCCC [1-heptyne] + CCCCCCCCCCCCCC[P+](CCCCCC)(CCCCCC)CCCCCC.O=S(=O)([N-]S(=O)(=O)C(F)(F)F)C(F)(F)F | 0.7
C#CCCCC [1-hexyne] + CCCCCCCCCCCCCC[P+](CCCCCC)(CCCCCC)CCCCCC.O=S(=O)([N-]S(=O)(=O)C(F)(F)F)C(F)(F)F | 0.74
C1CCCCC1 [cyclohexane] + CCCCCCCCCCCCCC[P+](CCCCCC)(CCCCCC)CCCCCC.O=S(=O)([N-]S(=O)(=O)C(F)(F)F)C(F)(F)F | 0.85
C1CCCC1 [cyclopentane] + CCCCCCCCCCCCCC[P+](CCCCCC)(CCCCCC)CCCCCC.O=S(=O)([N-]S(=O)(=O)C(F)(F)F)C(F)(F)F | 0.73
C=CCCC [1-pentene] + CCCCCCCCCCCCCC[P+](CCCCCC)(CCCCCC)CCCCCC.O=S(=O)([N-]S(=O)(=O)C(F)(F)F)C(F)(F)F | 0.85
CCCCCCC [heptane] + CCCCCCCCCCCCCC[P+](CCCCCC)(CCCCCC)CCCCCC.O=S(=O)([N-]S(=O)(=O)C(F)(F)F)C(F)(F)F | 1.33

----------
Listing: activity coefficient of selected molecules
Experiment: activity coefficient (dimensionless); of the first substance listed, at infinite dilution; xn = mol fraction of the nth substance listed
Conditions: 308.15 K; Liquid; Chromatography; x1 = 0

MOLECULE | activity coefficient
C=CCCCC [hex-1-ene] + CCCCCCCCCCCCCC[P+](CCCCCC)(CCCCCC)CCCCCC.O=S(=O)([N-]S(=O)(=O)C(F)(F)F)C(F)(F)F | 0.9
C1CCCC1 [cyclopentane] + CCCCCCCCCCCCCC[P+](CCCCCC)(CCCCCC)CCCCCC.O=S(=O)([N-]S(=O)(=O)C(F)(F)F)C(F)(F)F | 0.69
C=CCCC [1-pentene] + CCCCCCCCCCCCCC[P+](CCCCCC)(CCCCCC)CCCCCC.O=S(=O)([N-]S(=O)(=O)C(F)(F)F)C(F)(F)F | 0.8
CCCCCCCC [octane] + CCCCCCCCCCCCCC[P+](CCCCCC)(CCCCCC)CCCCCC.O=S(=O)([N-]S(=O)(=O)C(F)(F)F)C(F)(F)F | 1.36
